FYI, the data here is from paper PMC4604408.

assay.remarks: spontaneous triazene hydrolysis by UV spectroscopy
condition.notes: PBS, hydrolysis half-life, 50 µM in PBS at 37 °C, physiological conditions, n=2
result.type: half-life at 50 µM (h)
Write down the numeric answer in h and omit the unit.

The value of half-life at 50 µM measured for the molecule CC(=O)N(C)N=Nc1nc(O)c2[nH]cnc2n1 [Compound 1] turned out to be 6.8

###

Tested on: Tbb msh2-/-
assay.remarks: microbe, parasite or virus in culture
Format: cell-based, Trypanosoma brucei
condition.notes: read-out: Tbb msh2-/- (EC50; µM) AVG
result.type: EC50 (µM)
Write down the numeric answer in µM and omit the unit.

The value of EC50 measured for the compound N.N.[Cl][Pt][Cl] [Cisplatin] turned out to be 13.6
